The values you see were collected from paper PMC3813752.

Target: human GPR55 (Homo sapiens, UniProt Q9Y2T6)
Sequence (Q9Y2T6 whole entry): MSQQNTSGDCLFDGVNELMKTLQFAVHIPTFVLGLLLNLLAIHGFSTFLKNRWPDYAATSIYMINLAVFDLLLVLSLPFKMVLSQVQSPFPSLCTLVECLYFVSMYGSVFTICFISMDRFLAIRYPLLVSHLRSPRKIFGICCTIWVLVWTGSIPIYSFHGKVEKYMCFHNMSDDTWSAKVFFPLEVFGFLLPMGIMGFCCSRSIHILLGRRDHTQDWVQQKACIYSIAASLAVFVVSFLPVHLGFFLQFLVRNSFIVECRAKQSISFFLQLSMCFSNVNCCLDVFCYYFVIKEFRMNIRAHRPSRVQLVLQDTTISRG
Assay: β-arrestin recruitment assay (PathHunter), CHO cells expressing GPR55
Conditions: CHO, read-out: % inhibition of LPI (1 µM)-induced β-arrestin recruitment at GPR55, test compound at 10 µM
ENDPOINT: inhibition at 10 µM

• CCCc1ccc(O)c(-c2cc(CC)ccc2O)c1 = 19%
• CCCCCc1ccc(O)c(-c2cc(CCCC)ccc2O)c1 = 21%
• CCCCCCCCc1ccc(O)c(-c2cc(CCC)ccc2O)c1 = 0%
• C=CCc1ccc(O)c(-c2ccc(OC)c(CC=C)c2)c1 [Compound 11, 4′-O-Methylhonokiol, reference compound] = 87%
• CCCc1ccc(O)c(-c2cc(C(C)(C)C)ccc2O)c1 = 54%
• CCCCc1ccc(O)c(-c2cc(CC)ccc2O)c1 = 18%
• CCCCc1ccc(O)c(-c2cc(CCC)ccc2O)c1 = 44%
• CCCCCc1ccc(O)c(-c2cc(CC)ccc2O)c1 = 2%
• CCCCCc1ccc(O)c(-c2ccccc2O)c1 = 25%
• CCCCCCc1ccc(OC)c(-c2cc(CCC)ccc2O)c1 [Compound 61b] = 120%
• CCCCCCCc1ccc(O)c(-c2cc(CCC)ccc2O)c1 = 17%
• CCCCCCc1ccc(O)c(-c2ccccc2O)c1 = 34%
• CCc1ccc(O)c(-c2cc(CC)ccc2O)c1 = 0%
• CCCCCCc1ccc(O)c(-c2cc(CCC)ccc2O)c1 = 45%
